Assay: Drug transport across human Caco-2 cells
Format: in vitro ADME
Details: human, Caco-2, pH 7.2, Caco-2 monolayers, apical-to-basal, pH 7.2, 37° C.; read-out: PEAB
Entries annotated with measured Papp A→B at 10 µM

[
  {
    "COMPOUND": "CCOC(=O)N1C(=O)N(c2cccc(C(F)(F)F)c2)C2=C(C(=O)CC2)C1c1ccc(C#N)cc1 (centres unmarked) [Example 31]",
    "Papp A→B at 10 µM, ×10⁻⁶ cm/s": 80.9
  },
  {
    "COMPOUND": "CN1C(=O)N(c2ccnc(C(F)(F)F)c2)C2=C(C(=O)CC2)C1c1ccc(C#N)cc1S(C)(=O)=O (centres unmarked) [Example 29]",
    "Papp A→B at 10 µM, ×10⁻⁶ cm/s": 11.8
  },
  {
    "COMPOUND": "CCN1C(=O)N(c2cccc(C(F)(F)F)c2)C2=C(C(=O)CC2)C1c1ccc(C#N)cc1S(C)(=O)=O (centres unmarked) [Example 24]",
    "Papp A→B at 10 µM, ×10⁻⁶ cm/s": 62.5
  },
  {
    "COMPOUND": "CN1C(=O)N(c2cccc(C(F)F)c2)C2=C(C(=O)CC2)[C@H]1c1ccc(C#N)cc1 [Example 26A]",
    "Papp A→B at 10 µM, ×10⁻⁶ cm/s": 72
  },
  {
    "COMPOUND": "CS(=O)(=O)c1cc(C#N)ccc1[C@@H]1C2=C(CCC2=O)N(c2cccc(C(F)(F)F)c2)C(=O)N1CC#N [Example 23]",
    "Papp A→B at 10 µM, ×10⁻⁶ cm/s": 10.3
  },
  {
    "COMPOUND": "N#Cc1ccc(C2C3=C(CCC3=O)N(c3cccc(C(F)(F)F)c3)C(=O)N2C(=O)N[C@H]2CCC[C@@H]2O)cc1 (some centres unmarked) [Example 42.4]",
    "Papp A→B at 10 µM, ×10⁻⁶ cm/s": 39.7
  },
  {
    "COMPOUND": "CNC(=O)N1C(=O)N(c2cccc(C(F)(F)F)c2)C2=C(C(=O)CC2)[C@H]1c1ccc(C#N)cc1 [Example 7.1A]",
    "Papp A→B at 10 µM, ×10⁻⁶ cm/s": 72.7
  },
  {
    "COMPOUND": "CS(=O)(=O)N1C(=O)N(c2cccc(C(F)(F)F)c2)C2=C(C(=O)CC2)C1c1ccc(C#N)cc1Cl (centres unmarked) [Example 37.2]",
    "Papp A→B at 10 µM, ×10⁻⁶ cm/s": 84.9
  }
]

====

Test system: human hepatocytes
Test: Metabolic stability with human hepatocytes
Type: in vitro ADME
Details: human hepatocyte suspension, 1 μM test compound, scaled with well stirred model
Threshold rule: CL (predicted human hepatic in vivo blood clearance) greater than or equal to 3 mL/min/kg is YES; below that, NO.

[
  {
    "MOLECULE": "CS(=O)(=O)c1cc(C#N)ccc1C1NC(=O)N(c2cccc(C(F)F)c2)C2=C1C(=O)CC2 (stereo not shown)",
    "LABEL": "NO"
  },
  {
    "MOLECULE": "CCNC(=O)N1C(=O)N(c2cccc(C(F)(F)F)c2)C2=C(C(=O)CC2)[C@H]1c1ccc(C#N)cc1S(C)(=O)=O",
    "LABEL": "NO"
  },
  {
    "MOLECULE": "CC(C)(O)CNC(=O)N1C(=O)N(c2cccc(C(F)(F)F)c2)C2=C(C(=O)CC2)[C@H]1c1ccc(C#N)cc1 [Example 41A]",
    "LABEL": "NO"
  },
  {
    "MOLECULE": "CNC(=O)N1C(=O)N(c2cccc(C(F)(F)F)c2)C2=C(C(=O)CC2)C1c1ccc(C#N)cn1 (stereo not shown)",
    "LABEL": "NO"
  },
  {
    "MOLECULE": "CS(=O)(=O)N1C(=O)N(c2cccc(C(F)(F)F)c2)C2=C(C(=O)CC2)[C@H]1c1ccc(C#N)cc1",
    "LABEL": "NO"
  },
  {
    "MOLECULE": "CC(C)NC(=O)N1C(=O)N(c2cccc(C(F)F)c2)C2=C(C(=O)CC2)C1c1ccc(C#N)cc1S(C)(=O)=O (stereo not shown)",
    "LABEL": "NO"
  },
  {
    "MOLECULE": "N#Cc1ccc([C@@H]2C3=C(CCC3=O)N(c3cccc(C(F)F)c3)C(=O)N2C(=O)NCCCO)cc1 [Example 52A]",
    "LABEL": "YES"
  },
  {
    "MOLECULE": "N#Cc1ccc(C2C3=C(CCC3=O)N(c3cccc(C(F)(F)F)c3)C(=O)N2C(=O)N[C@H]2COC[C@H]2O)cc1 (stereo partly shown)",
    "LABEL": "YES"
  },
  {
    "MOLECULE": "N#Cc1ccc([C@H]2NC(=O)N(c3cccc(C(F)(F)F)c3)C3=C2C(=O)CC3)cc1",
    "LABEL": "YES"
  },
  {
    "MOLECULE": "CCS(=O)(=O)c1cc(C#N)ccc1C1NC(=O)N(c2cccc(C(F)(F)F)c2)C2=C1C(=O)CC2 (stereo not shown)",
    "LABEL": "YES"
  },
  {
    "MOLECULE": "C[C@H](CO)NC(=O)N1C(=O)N(c2cccc(C(F)(F)F)c2)C2=C(C(=O)CC2)C1c1ccc(C#N)cc1 (stereo partly shown)",
    "LABEL": "YES"
  },
  {
    "MOLECULE": "CN1C(=O)N(c2cccc(C(F)(F)F)c2)C2=C(C(=O)CC2)[C@H]1c1ccc(C#N)cc1S(C)(=O)=O",
    "LABEL": "NO"
  },
  {
    "MOLECULE": "CNC(=O)N1C(=O)N(c2cccc(C(F)(F)F)c2)C2=C(C(=O)CC2)[C@H]1c1ccc(C#N)cc1S(C)(=O)=O",
    "LABEL": "NO"
  },
  {
    "MOLECULE": "CS(=O)(=O)c1cc(C#N)ccc1C1C2=C(CCC2=O)N(c2cccc(C(F)F)c2)C(=O)N1C(=O)NC1CC1 (stereo not shown)",
    "LABEL": "NO"
  },
  {
    "MOLECULE": "C[C@H](O)CNC(=O)N1C(=O)N(c2cccc(C(F)(F)F)c2)C2=C(C(=O)CC2)C1c1ccc(C#N)cc1 (stereo partly shown)",
    "LABEL": "NO"
  },
  {
    "MOLECULE": "CS(=O)(=O)c1cc(C#N)ccc1[C@H]1NC(=O)N(c2cccc(C(F)(F)F)c2)C2=C1C(=O)CC2 [Example 10A]",
    "LABEL": "NO"
  }
]

====

Target: Human neutrophil elastase (Homo sapiens (Human))
Experiment: Human Neutrophil Elastase Assay
Format: biochemical
Settings: human neutrophil elastase, substrate MeOSuc-Ala-Ala-Pro-Val-AMC 250 μM, pH 7.5; read-out: IC50
Entries annotated with measured IC50

[
  {
    "MOLECULE": "CS(=O)(=O)c1cc(C#N)ccc1[C@@H]1C2=C(CCC2=O)N(c2cccc(C(F)(F)F)c2)C(=O)N1C(=O)NC1CCOCC1",
    "IC50": "< 1 nM"
  },
  {
    "MOLECULE": "CS(=O)(=O)c1cc(C#N)ccc1[C@@H]1C2=C(CCC2=O)N(c2cccc(C(F)(F)F)c2)C(=O)N1C(=O)NCC#N",
    "IC50": "< 1 nM"
  },
  {
    "MOLECULE": "CCNC(=O)N1C(=O)N(c2cccc(C(F)(F)F)c2)C2=C(C(=O)CC2)C1c1ccc(C#N)cc1Cl (stereo not drawn)",
    "IC50": "< 1 nM"
  }
]

====

Entries annotated with measured efflux ratio at 10 μM
Test: Drug transport across human Caco-2 cells
Assay type: in vitro ADME
Details: human, Caco-2, pH 7.2, PEBA/PEAB, Caco-2

[
  {
    "MOLECULE": "CS(=O)(=O)c1cc(C#N)ccc1[C@H]1NC(=O)N(c2cccc(C(F)F)c2)C2=C1C(=O)CC2",
    "efflux ratio at 10 μM": 15
  },
  {
    "MOLECULE": "CNC(=O)N1C(=O)N(c2cccc(C(F)(F)F)c2)C2=C(C(=O)CC2)[C@H]1c1ccc(C#N)cc1S(C)(=O)=O",
    "efflux ratio at 10 μM": 8
  },
  {
    "MOLECULE": "CS(=O)(=O)c1cc(C#N)ccc1[C@H]1NC(=O)N(c2cccc(C(F)(F)F)c2)C2=C1C(=O)CC2 [Example 10A]",
    "efflux ratio at 10 μM": 14.5
  }
]

====

Entries annotated with measured IC50
Molecular target: Human neutrophil elastase (Homo sapiens (Human), UniProt P08246)
Sequence (P08246 30-247): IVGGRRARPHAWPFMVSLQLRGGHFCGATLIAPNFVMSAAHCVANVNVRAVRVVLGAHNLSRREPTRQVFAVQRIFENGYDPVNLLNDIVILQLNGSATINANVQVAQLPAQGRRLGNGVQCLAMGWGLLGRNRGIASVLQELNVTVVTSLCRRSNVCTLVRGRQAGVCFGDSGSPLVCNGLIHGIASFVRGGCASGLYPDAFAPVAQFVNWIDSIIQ
Experiment: Human Neutrophil Elastase Assay
Format: biochemical
Conditions: human neutrophil elastase, substrate MeOSuc-Ala-Ala-Pro-Val-AMC 250 μM, pH 7.5; read-out: IC50
REPORTED ENDPOINT: IC50

[
  {
    "MOLECULE": "CC(C)(O)CNC(=O)N1C(=O)N(c2cccc(C(F)F)c2)C2=C(C(=O)CC2)C1c1ccc(C#N)cc1S(C)(=O)=O (stereo not drawn)",
    "MEASURED TARGET": "Human neutrophil elastase (Homo sapiens (Human), UniProt P08246)",
    "READING": "< 1 nM"
  },
  {
    "MOLECULE": "CNC(=O)N1C(=O)N(c2cccc(C(F)(F)F)c2)C2=C(C(=O)CC2)C1c1ccc(C#N)cc1C (stereo not drawn)",
    "MEASURED TARGET": "Human neutrophil elastase (Homo sapiens (Human), UniProt P08246)",
    "READING": "< 1 nM"
  },
  {
    "MOLECULE": "CC(C)NC(=O)N1C(=O)N(c2cccc(C(F)(F)F)c2)C2=C(C(=O)CC2)[C@H]1c1ccc(C#N)cc1S(C)(=O)=O",
    "MEASURED TARGET": "Human neutrophil elastase (Homo sapiens (Human), UniProt P08246)",
    "READING": "< 1 nM"
  }
]
